test system: 885724-159-R-J1-PDC KRAS PDC multicell spheroid viability; assay: Anticancer human tumor 885724-159-R-J1-PDC patient-derived pancreatic adenocarcinoma cell line growth inhibition [KRAS2]; details: second compound 0.1 µM; first compound 0.01 µM; active compounds read low
valueKind: viability, T/C (%)
The reply should be a number in %, with the unit left off.

Give a short answer stating reported viability, T/C for CC1COCCN1c1cc(-c2ccnn2C)c2ccnc(-c3ccn[nH]3)c2n1 (stereo unspecified) + C=CC(=O)N1CCN(c2nc(OCC3CCCN3C)nc3c2CCN(c2cccc4cccc(C)c24)C3)CC1CC#N .
103

Please report the measured viability, T/C for CC1COCCN1c1cc(-c2ccnn2C)c2ccnc(-c3ccn[nH]3)c2n1 (stereo unspecified) + CC1OCC2(CCN(c3cnc(Sc4ccnc(N)c4Cl)c(N)n3)CC2)C1N
91.3

Report measured viability, T/C; entry is CN(C)C/C=C/C(=O)Nc1cc2c(Nc3ccc(F)c(Cl)c3)ncnc2cc1O[C@H]1CCOC1 + CNCc1ccccc1-c1csc(C(C)Nc2nc(C)nc3cc(OC)c(OC)cc23)c1
89.8

Report viability, T/C for CC1COCCN1c1cc(-c2ccnn2C)c2ccnc(-c3ccn[nH]3)c2n1 (stereo unspecified) + C=CC(=O)N1CCN(c2nc(=O)n(-c3c(C)ccnc3C(C)C)c3nc(-c4c(O)cccc4F)c(F)cc23)C(C)C1
111

Assign viability, T/C to the following record: CN(C)C/C=C/C(=O)Nc1cc2c(Nc3ccc(F)c(Cl)c3)ncnc2cc1O[C@H]1CCOC1 + COc1cc2nc(C)nc(NC(C)c3cc(N)cc(C(F)(F)F)c3)c2cc1OC1CCOC1
88.9

Report measured viability, T/C; entry is CCN1CCN(Cc2ccc(Nc3ncc(F)c(-c4cc(F)c5nc(C)n(C(C)C)c5c4)n3)nc2)CC1 + CNCc1ccccc1-c1csc(C(C)Nc2nc(C)nc3cc(OC)c(OC)cc23)c1
100

Specify measured viability, T/C for CCN1CCN(Cc2ccc(Nc3ncc(F)c(-c4cc(F)c5nc(C)n(C(C)C)c5c4)n3)nc2)CC1 + C=CC(=O)N1CCN(c2nc(=O)n(-c3c(C)ccnc3C(C)C)c3nc(-c4c(O)cccc4F)c(F)cc23)C(C)C1 .
98.6

Give the reported value of viability, T/C for this record: Cn1ncnc1[C@H]1c2n[nH]c(=O)c3cc(F)cc(c23)N[C@@H]1c1ccc(F)cc1 + C=CC(=O)N1CCN(c2nc(OCC3CCCN3C)nc3c2CCN(c2cccc4cccc(C)c24)C3)CC1CC#N
108

Identify measured viability, T/C associated with CC1COCCN1c1cc(-c2ccnn2C)c2ccnc(-c3ccn[nH]3)c2n1 (stereo unspecified) + CNCc1ccccc1-c1csc(C(C)Nc2nc(C)nc3cc(OC)c(OC)cc23)c1
108

Query viability, T/C for Cn1ncnc1[C@H]1c2n[nH]c(=O)c3cc(F)cc(c23)N[C@@H]1c1ccc(F)cc1 + C=CC(=O)N1CCN(c2nc(=O)n(-c3c(C)ccnc3C(C)C)c3nc(-c4c(O)cccc4F)c(F)cc23)C(C)C1
110

Tell me viability, T/C reported for CN(C)C/C=C/C(=O)Nc1cc2c(Nc3ccc(F)c(Cl)c3)ncnc2cc1O[C@H]1CCOC1 + C=CC(=O)N1CCN(c2nc(OCC3CCCN3C)nc3c2CCN(c2cccc4cccc(C)c24)C3)CC1CC#N
83.1

* * *

system: 885724-159-R-J1-PDC KRAS PDC multicell spheroid viability; assay: Anticancer human tumor 885724-159-R-J1-PDC cell line growth inhibition [KRAS2]; details: second compound 3.16 µM; first compound 3.16 µM; active compounds read low;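 note: spheroids exposed to agents for 7 days before readout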
valueKind: viability, T/C (%)
Give your result in % as a bare value.

# lookup: 885724-159-R-J1-PDC KRAS PDC multicell spheroid viability viability, T/C, key = COc1cc2nccc(Oc3ccc(NC(=O)C4(C(=O)Nc5ccc(F)cc5)CC4)cc3)c2cc1OC + COc1cc2nc(C)nc(NC(C)c3cc(N)cc(C(F)(F)F)c3)c2cc1OC1CCOC1
28.7

Give viability, T/C; test system 885724-159-R-J1-PDC KRAS PDC multicell spheroid viability; compound COc1cc2nccc(Oc3ccc(NC(=O)C4(C(=O)Nc5ccc(F)cc5)CC4)cc3)c2cc1OC + C=CC(=O)N1CCN(c2nc(OCC3CCCN3C)nc3c2CCN(c2cccc4cccc(C)c24)C3)CC1CC#N
12.4

Would you please give the reported viability, T/C of CC1COCCN1c1cc(-c2ccnn2C)c2ccnc(-c3ccn[nH]3)c2n1 (configuration not stated) + CNCc1ccccc1-c1csc(C(C)Nc2nc(C)nc3cc(OC)c(OC)cc23)c1 with 885724-159-R-J1-PDC KRAS PDC multicell spheroid viability?
1.97

Give the observed viability, T/C of CC(=O)OC12COC1CC(O)C1(C)C(=O)C(O)C3=C(C)C(OC(=O)C(O)C(NC(=O)OC(C)(C)C)c4ccccc4)CC(O)(C(OC(=O)c4ccccc4)C21)C3(C)C (configuration not stated) + CC1OCC2(CCN(c3cnc(Sc4ccnc(N)c4Cl)c(N)n3)CC2)C1N for 885724-159-R-J1-PDC KRAS PDC multicell spheroid viability.
97.8

Recall the reported viability, T/C of COc1cc2nccc(Oc3ccc(NC(=O)C4(C(=O)Nc5ccc(F)cc5)CC4)cc3)c2cc1OC + C=CC(=O)N1CCN(c2nc(=O)n(-c3c(C)ccnc3C(C)C)c3nc(-c4c(O)cccc4F)c(F)cc23)C(C)C1 on 885724-159-R-J1-PDC KRAS PDC multicell spheroid viability and write it down.
78.6

Give viability, T/C; test system 885724-159-R-J1-PDC KRAS PDC multicell spheroid viability; compound CC(C)NCC(C(=O)N1CCN(c2ncnc3c2C(C)CC3O)CC1)c1ccc(Cl)cc1 (configuration not stated) + COc1cc2nc(C)nc(NC(C)c3cc(N)cc(C(F)(F)F)c3)c2cc1OC1CCOC1
76.9

Fill: viability, T/C (885724-159-R-J1-PDC KRAS PDC multicell spheroid viability) for this compound CC(C)NCC(C(=O)N1CCN(c2ncnc3c2C(C)CC3O)CC1)c1ccc(Cl)cc1 (configuration not stated) + C=CC(=O)N1CCN(c2nc(=O)n(-c3c(C)ccnc3C(C)C)c3nc(-c4c(O)cccc4F)c(F)cc23)C(C)C1
57.9

* * *

So I've got a bunch of compounds here, and I need their viability, T/C values.
test system: 885724-159-R-J1-PDC KRAS PDC multicell spheroid viability; assay: Anticancer human tumor 885724-159-R-J1-PDC cell line growth inhibition [KRAS2]; details: second compound 10 µM; first compound 0.1 µM; active compounds read low;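 note: spheroids exposed to agents for 7 days before readout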
A number alone suffices; assume %.

Complete the entry with viability, T/C for CC(C)n1nc(-c2ccc3oc(N)nc3c2)c2c(N)ncnc21 + COc1cc2nc(C)nc(NC(C)c3cc(N)cc(C(F)(F)F)c3)c2cc1OC1CCOC1
20.9

Return reported viability, T/C. Input compound: CCN1CCN(Cc2ccc(Nc3ncc(F)c(-c4cc(F)c5nc(C)n(C(C)C)c5c4)n3)nc2)CC1 + CC1OCC2(CCN(c3cnc(Sc4ccnc(N)c4Cl)c(N)n3)CC2)C1N
59.6

Consider the compound Cn1ncnc1[C@H]1c2n[nH]c(=O)c3cc(F)cc(c23)N[C@@H]1c1ccc(F)cc1 + COc1cc2nc(C)nc(NC(C)c3cc(N)cc(C(F)(F)F)c3)c2cc1OC1CCOC1 . State its measured viability, T/C.
30.4

Provide measured viability, T/C value, entry: CC1COCCN1c1cc(-c2ccnn2C)c2ccnc(-c3ccn[nH]3)c2n1 (stereo unspecified) + CC1OCC2(CCN(c3cnc(Sc4ccnc(N)c4Cl)c(N)n3)CC2)C1N
53.8

For the compound CC(C)n1nc(-c2ccc3oc(N)nc3c2)c2c(N)ncnc21 + CNCc1ccccc1-c1csc(C(C)Nc2nc(C)nc3cc(OC)c(OC)cc23)c1 , report viability, T/C.
0.34

Read off the recorded viability, T/C for CC(C)n1nc(-c2ccc3oc(N)nc3c2)c2c(N)ncnc21 + C=CC(=O)N1CCN(c2nc(=O)n(-c3c(C)ccnc3C(C)C)c3nc(-c4c(O)cccc4F)c(F)cc23)C(C)C1
32.9

* * *

tested on: 885724-159-R-J1-PDC KRAS PDC multicell spheroid viability; test: Anticancer human tumor 885724-159-R-J1-PDC cell line growth inhibition [KRAS2]; details: second compound 10 µM; first compound 0.0316 µM; active compounds read low;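 note: spheroids exposed to agents for 7 days before readout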
Exercise: state measured viability, T/C for each of the molecules provided.
Please respond with the number in % and leave the unit unwritten.

Write viability, T/C of CN(C)C/C=C/C(=O)Nc1cc2c(Nc3ccc(F)c(Cl)c3)ncnc2cc1O[C@H]1CCOC1 + CC1OCC2(CCN(c3cnc(Sc4ccnc(N)c4Cl)c(N)n3)CC2)C1N ; system used: 885724-159-R-J1-PDC KRAS PDC multicell spheroid viability
104

Give viability, T/C only, for CN(C)C/C=C/C(=O)Nc1cc2c(Nc3ccc(F)c(Cl)c3)ncnc2cc1O[C@H]1CCOC1 + C=CC(=O)N1CCN(c2nc(=O)n(-c3c(C)ccnc3C(C)C)c3nc(-c4c(O)cccc4F)c(F)cc23)C(C)C1 , using 885724-159-R-J1-PDC KRAS PDC multicell spheroid viability data.
66.2

Fill in viability, T/C for CC(=O)Nc1cccc(-n2c(=O)n(C3CC3)c(=O)c3c(Nc4ccc(I)cc4F)n(C)c(=O)c(C)c32)c1 + CC1OCC2(CCN(c3cnc(Sc4ccnc(N)c4Cl)c(N)n3)CC2)C1N tested with 885724-159-R-J1-PDC KRAS PDC multicell spheroid viability.
11.7

With 885724-159-R-J1-PDC KRAS PDC multicell spheroid viability as the test system, provide measured viability, T/C for this molecule: O=C(c1cc(Cc2n[nH]c(=O)c3ccccc23)ccc1F)N1CCN(C(=O)C2CC2)CC1 + C=CC(=O)N1CCN(c2nc(=O)n(-c3c(C)ccnc3C(C)C)c3nc(-c4c(O)cccc4F)c(F)cc23)C(C)C1
86
